# System: KM12
# Test: NCI tumour cell line growth inhibition, 48 h
Calls of active or inactive are those of the source. Cut-off read from the data, not from the text of the source: active = GI50 up to about 1.1 µM and inactive = higher.
Measurement label: GI50

Look over these answered cases.
>>> result_value("CC(=O)NNC(=O)C1CCCCN1 (configuration not stated)")
"> 100 µM (inactive)"
>>> result_value("CC(C)(Oc1ccc(C(=O)c2ccc(Cl)cc2)cc1Cl)C(=O)Nc1c(Cl)cccc1Cl")
"> 100 µM (inactive)"
>>> result_value("CC(=O)OC(C)(C)[C@@H]1CC[C@]2(C)/C=C/[C@H](C)C[C@@H](O)C3=C(C)C[C@@H](O3)C12 (some centres not stated)")
"> 100 µM (inactive)"
>>> result_value("COc1cc(/C=C2\\N=C(c3ccccc3)N(/N=C/c3cc4cc(C)ccc4nc3Cl)C2=O)ccc1O")
"37.2 µM (inactive)"
>>> result_value("Cc1nc2ccc(S(=O)(=O)O)cc2c(=O)n1-c1ccc(C(=O)NN2C(=O)C(Cl)C2c2ccccc2O)cc1 (configuration not stated)")
"> 100 µM (inactive)"
>>> result_value("Cc1cc(O)nc(NN2C(Cl)C(=O)C2c2ccc([N+](=O)[O-])cc2)n1 (configuration not stated)")
"> 10 µM (inactive)"

## Task Suppose we examine the molecule CCOC(=O)/C(=C\NC(=S)Nc1ccc(OCC)cc1)C(=O)c1ccccc1 ; what GI50 value has been reported?
## Result > 100 µM (inactive)

----------
Provide the reported GI50 of each item.
# Test system: SNB-19
# Test: NCI tumour cell line growth inhibition, 48 h
Calls of active or inactive are those of the source. No stated cut-off is given here; in the data, active = GI50 up to about 1.1 µM and inactive = higher.

// input: 6 molecules below; output: GI50 for each
1. CC(=O)NCCCCNCCCNC(C)=O
2. CC1(C)CC[C@]2(C(=O)O)CC[C@]3(C)C(=CC[C@@H]4[C@@]5(C)C[C@H](O)[C@H](O)[C@@](C)(C(=O)O)[C@@H]5CC[C@]43C)[C@@H]2C1
3. COP12(OC)NC(=O)OC1(C(F)(F)F)c1ccccc1O2 (centres undefined)
4. COc1c(CC=C(C)C)c(O)c(C(CC(C)C)c2c(O)c(C(C)=O)c(O)c3c2OC(C(C)(C)O)C3)c(O)c1C(C)=O (centres undefined)
5. COC(=O)C(=O)C(C(=O)C(=O)Nc1ccccc1OC)c1nc2ccc([N+](=O)[O-])cc2nc1O (centres undefined)
6. COC(=O)C1CCC(N2C(=O)CCC2C(=O)OC)=N1 (centres undefined)

## Result
1. > 100 µM (inactive)
2. > 100 µM (inactive)
3. > 100 µM (inactive)
4. 7.33 µM (inactive)
5. 23.2 µM (inactive)
6. > 100 µM (inactive)

----------
# Tested on: NCI/ADR-RES
# Test: NCI tumour cell line growth inhibition, 48 h
Calls of active or inactive are those of the source. No stated cut-off is given here; in the data, active = GI50 up to about 1.1 µM and inactive = higher.
Measurement label: GI50

Below are worked cases with known answers.
>>> result_value("Cc1cc(-c2nc3cc(F)ccc3s2)ccc1NC(=O)[C@@H](N)CCCCN")
"15.2 µM (inactive)"
>>> result_value("Nc1c(F)c(F)c2c(c1F)N(CCCCCl)c1ccccc1S2")
"> 100 µM (inactive)"
>>> result_value("CCc1c(CN)c(CC)c(CNC2=NCCN2)c(CC)c1CNC1=NCCN1")
"> 100 µM (inactive)"
>>> result_value("CNc1ccccc1S(=O)(=O)c1ccccc1[N+](=O)[O-]")
"45.5 µM (inactive)"
>>> result_value("C/N=c1\\sc2nc(C#N)c(C#N)nc2n1C")
"25.5 µM (inactive)"

List reported GI50 for each of these compounds:
1. CC1(C)N[PH]2(Nc3ccccc3O2)OC1=O
2. O=C1CC[C@@]23CC(=O)O[C@@H]2CCCC3C1 (stereo partly drawn)
3. O=C1CNCCCN2CCN(CCCNCC(=O)Nc3ccc(cc3)S(=O)(=O)c3ccc(cc3)NC(=O)CNCCCN3CCN(CCCNCC(=O)Nc4ccc(cc4)S(=O)(=O)c4ccc(cc4)N1)CC3)CC2
4. CCN1C(=O)C(=C/C=C/c2ccc(N(CC)CC)cc2)C(=O)N(CC)C1=S
5. O=c1c2c([N+](=O)[O-])cccc2nc2[nH]c3ccccc3n12
6. NC(=O)Nc1n[nH]c(-c2ccccc2)n1

## Result
["49.9 µM (inactive)", "> 100 µM (inactive)", "40.3 µM (inactive)", "33.9 µM (inactive)", "26.4 µM (inactive)", "> 100 µM (inactive)"]

----------
# Test system: K562
# Test: NCI tumour cell line growth inhibition, 48 h
The source made the active and inactive calls. Cut-off read from the data, not from the text of the source: active = GI50 up to about 1.1 µM and inactive = higher.
Entry note: the call must match one of active, inactive

>>> answer_label("COc1cc(S(=O)(=O)Nc2nc(-c3ccc(N4C(=O)C(CC(=O)O)SC4c4cccs4)cc3)cs2)ccc1Cl (stereo not drawn)")
"inactive"

## Task Could you kindly confirm the outcome this assay logged for O=C1CSC(=S)N1 ?
## Result inactive

----------
# Tested on: U-251
# Test: NCI tumour cell line growth inhibition, 48 h
Calls of active or inactive are those of the source. Rule as the data show it: active = GI50 up to about 1.1 µM and inactive = higher.
Thanks in advance; please answer with one of these: active, inactive

Observe how each entry below is paired with its result.
>>> answer_label("O=c1oc(C(C(F)(F)F)C(F)(F)F)nc2ccccc12")
"inactive"
>>> answer_label("COC(=O)C(N)CCCC(N)C(=O)NC(C)C(=O)NC(CCC(=O)NCCNCCNc1c2ccccc2nc2cccc([N+](=O)[O-])c12)C(N)=O (stereo not drawn)")
"inactive"
>>> answer_label("O=C1C(Cl)C2(CC(/C=C/c3ccccc3O)=NN2c2cccc(S(=O)(=O)O)c2)N1c1nc2ccccc2s1 (stereo not drawn)")
"inactive"
>>> answer_label("COc1cc(C2c3cccc4cccc(c34)C3CCC(=O)N32)cc(O)c1O (stereo not drawn)")
"inactive"
>>> answer_label("CC(=NNC(=S)Nc1cccc(C)c1)c1cccc(C(C)=NNC(=S)Nc2cccc(C)c2)n1")
"inactive"

## Task What did this assay record as the result for CN1C(=O)CC2(C)c3cc(C=O)ccc3N(C)C12 (stereo not drawn) ?
## Result inactive

## Task Query COc1ccc(C(=C2C(=O)OC(=O)C2=C(C)C)c2ccc(OC)cc2)cc1 next
## Result inactive

## Task Then what about the molecule COc1cc(C2c3cc4c(cc3[C@@H](Nc3ccc(N(C)C)cc3)[C@H]3COC(=O)C23)OCO4)cc(OC)c1O (stereo partly drawn) ?
## Result active

----------
Provide the reported GI50 of each item.
# Tested on: HL-60
# Test: NCI tumour cell line growth inhibition, 48 h
Active and inactive are the calls of the source. No stated cut-off is given here; in the data, active = GI50 up to about 1.1 µM and inactive = higher.

# batch size: 2; output GI50 per entry
1. CC(C)(Oc1ccc(C(=O)c2ccc(Cl)cc2)cc1Cl)C(=O)Nc1c(Cl)cccc1Cl
2. CCCC(=O)OCC1OC(n2cc(F)c(=O)[nH]c2=O)C(F)C1O (stereo unspecified)

## Result
1: 10.7 µM (inactive); 2: > 100 µM (inactive)

Please supply GI50 for each of the following items, keeping them in order.
1. CC1(C)C2=CCCC(=O)[C@@]2(C)CC[C@@H]1O
2. CC(=NNC(=S)Nc1cccc(C)c1)c1cccc(C(C)=NNC(=S)Nc2cccc(C)c2)n1
3. C=C1CC[C@@H](CCC2CCC3(OC2)O[C@]2(O)CC[C@@]3(C)OC2(C)C)C(C)(C)[C@H]1C/C=C1\CCOC1=O (stereo partly specified)
4. CCOc1ccc(/C=C2\N=C(c3ccccc3)OC2=O)cc1

## Result
> 100 µM (inactive)
17.3 µM (inactive)
1.36 µM (inactive)
> 100 µM (inactive)

Could you report GI50 for every entry in the following list?
1. C=C(Cl)C(Cl)(CCl)CCC(Br)C(C)(C)Br (stereo unspecified)
2. Oc1cccc(-c2cc(=S)ss2)c1
3. CC(C)CCC1(O)O[C@H]2C[C@H]3[C@@H]4CCC5CC(=O)C=C[C@]5(C)[C@H]4CC[C@]3(C)[C@H]2[C@@H]1C (stereo partly specified)

## Result
> 10 µM (inactive)
15 µM (inactive)
4.45 µM (inactive)

Can you give me GI50 for all of these, one by one?
1. CC(=O)Nc1cc2ccc(=O)oc2cc1Cl
2. O=c1sc(-c2nc3ccccc3[nH]2)c(/N=C/c2ccccc2)n1-c1ccccc1
3. Cc1ccc2nc3c(Cl)cc(=O)cc-3sc2c1
4. CC(=O)OC(C)(C)[C@@H]1CC[C@]2(C)/C=C/[C@H](C)C[C@@H](O)C3=C(C)C[C@@H](O3)C12 (stereo partly specified)
5. O=C1NC(=S)N/C1=C\c1cc2c(=O)c3ccccc3sc2s1
6. CCOC(=O)Cn1c(=O)c2cc(-c3ccccc3)cc3c(Cl)nc4c(OC)c(OC)cc1c4c32

## Result
> 100 µM (inactive)
> 100 µM (inactive)
5.77 µM (inactive)
> 100 µM (inactive)
36.5 µM (inactive)
4.89 µM (inactive)

List the reported GI50 of each compound below.
1. COC(=O)C(=O)C(C(=O)C(=O)Nc1ccccc1OC)c1nc2ccc([N+](=O)[O-])cc2nc1O (stereo unspecified)
2. Cn1cc(NC(=O)Nc2cc(C(=O)Nc3cc(C(=O)Nc4ccc(S(=O)(=O)O)c5cc(S(=O)(=O)O)ccc45)n(C)c3)n(C)c2)cc1C(=O)Nc1cc(C(=O)Nc2ccc(S(=O)(=O)O)c3cc(S(=O)(=O)O)ccc23)n(C)c1
3. COc1ccccc1C(=O)c1ccc2ccccc2c1
4. CC(=O)Nc1ccccc1NC1CC(C)N(c2ccccc2)N1C(C)=O (stereo unspecified)
5. O=C1c2c[nH]nc2C(c2ccccc2)N1c1ccccc1 (stereo unspecified)
6. COc1cc(C2SCC(=O)N2c2ccc(Cl)cc2)cc(I)c1O (stereo unspecified)

## Result
["> 100 µM (inactive)", "> 100 µM (inactive)", "3.21 µM (inactive)", "> 10 µM (inactive)", "> 10 µM (inactive)", "15.7 µM (inactive)"]
